All figures here come from patent US20210277110A1.

Target Of Assay: T1, Extracellular domain of human PD1 (huPD1-ECD) (human, UniProt Q15116 25-169, biotinylated in the ligand inhibition assay (sites not given))
T1 construct: Expressed with a hexahistidine tag or as Fc fusion; also called biotinylated PD-1
T1 sequence (Q15116 25-169 limits assumed): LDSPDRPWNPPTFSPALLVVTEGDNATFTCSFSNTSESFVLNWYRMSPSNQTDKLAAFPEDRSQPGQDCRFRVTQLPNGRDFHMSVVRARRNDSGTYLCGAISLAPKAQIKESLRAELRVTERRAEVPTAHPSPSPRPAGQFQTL
Experiment Summary: SPR ProteOn, captured mAb, huPD1-ECD analyte
So I've got a bunch of binders here, and I need their Kd values.
Provide only the numeric value, understood in nM.

Consider the binder PD1B164 (antibody, human IgG2, kappa, V domains shown, IgG2sigma/kappa; VH 42, VL 53; also called PD1H131/PD1L71) VH: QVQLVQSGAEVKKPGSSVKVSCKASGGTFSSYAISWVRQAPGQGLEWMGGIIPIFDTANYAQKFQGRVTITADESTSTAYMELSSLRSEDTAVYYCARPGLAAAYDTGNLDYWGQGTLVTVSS VL: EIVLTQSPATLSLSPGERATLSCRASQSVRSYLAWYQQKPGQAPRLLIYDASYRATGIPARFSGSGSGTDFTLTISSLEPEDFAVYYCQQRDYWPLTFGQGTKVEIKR . State its measured Kd.
2.92

Consider the binder PD1B185 (antibody, human IgG2, kappa, V domains shown, IgG2sigma/kappa; VH 43, VL 55; also called PD1H3/PD1L132) VH: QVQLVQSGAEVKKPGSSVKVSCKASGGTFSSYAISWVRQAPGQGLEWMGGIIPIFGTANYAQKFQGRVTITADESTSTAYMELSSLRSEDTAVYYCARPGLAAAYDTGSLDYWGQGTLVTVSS VL: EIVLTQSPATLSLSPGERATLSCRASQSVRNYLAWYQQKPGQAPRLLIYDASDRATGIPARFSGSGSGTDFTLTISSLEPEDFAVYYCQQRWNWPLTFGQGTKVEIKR . State its measured Kd.
13.1

Consider the binder PD1B114 (antibody, human IgG2, kappa, V domains shown, IgG2sigma/kappa; also called PD1H24/PH9L3) VH: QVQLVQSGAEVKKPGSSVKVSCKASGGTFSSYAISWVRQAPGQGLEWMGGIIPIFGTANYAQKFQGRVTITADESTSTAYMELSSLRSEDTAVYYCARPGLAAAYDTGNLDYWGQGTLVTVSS VL: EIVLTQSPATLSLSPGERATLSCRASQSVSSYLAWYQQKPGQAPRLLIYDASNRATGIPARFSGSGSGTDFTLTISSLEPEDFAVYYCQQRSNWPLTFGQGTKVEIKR . State its measured Kd.
54.1

Consider the binder PD1B162 (antibody, human IgG2, kappa, V domains shown, IgG2sigma/kappa; VH 42, VL 52; also called PD1H131/PD1L67) VH: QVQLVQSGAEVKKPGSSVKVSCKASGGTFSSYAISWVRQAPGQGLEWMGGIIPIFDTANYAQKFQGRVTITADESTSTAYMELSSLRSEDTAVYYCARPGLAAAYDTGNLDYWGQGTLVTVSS VL: EIVLTQSPATLSLSPGERATLSCRASQSVDSYLAWYQQKPGQAPRLLIYDASNRATGIPARFSGSGSGTDFTLTISSLEPEDFAVYYCQQREYWPLTFGQGTKVEIKR . State its measured Kd.
5.95

Consider the binder PD1B177 (antibody, V domains shown, Tested as IgG2sigma; also called PD1H164/PH9L3) VH: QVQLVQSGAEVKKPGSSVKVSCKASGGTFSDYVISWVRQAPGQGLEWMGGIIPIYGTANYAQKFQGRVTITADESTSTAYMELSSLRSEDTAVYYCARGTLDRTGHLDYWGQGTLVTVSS VL: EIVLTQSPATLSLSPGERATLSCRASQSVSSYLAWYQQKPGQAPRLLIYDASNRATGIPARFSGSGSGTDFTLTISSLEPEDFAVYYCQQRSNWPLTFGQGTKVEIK . State its measured Kd.
5
